Tested on: P388 leukemia ip, CD2F1 mice, survival T/C
testMethodNotes: NCI In Vivo Anticancer Drug Screen. Data for tumor model P388 Leukemia (intraperitoneal) in CD2F1 (CDF1) mice
experimentalSetup: endpoint: median survival time; dose: 240.0 mg/kg/injection; schedule: Q01DX005 (ip); vehicle: saline; higher = longer survival
Inconclusive results and toxic doses are left out.
quantity: T/C

Hey, quick one: what's T/C for each of these?
1. O=C(c1cccc(C(=O)N2CCCC2)n1)N1CCCC1
2. CC(C)=CCCC(=O)Cc1nc2nnc(N)n2nc1CC(=O)CCC=C(C)C
3. Cn1ccnc1Sc1ccccn1
4. Clc1ccc2c(c1)C(c1ccccc1Cl)=NCC(SCCN1CCOCC1)=N2
5. OC[C@H]1N[C@H](CO)[C@@H](O)[C@H]1O
6. OCC1OC(n2c(Cl)nc3ccccc32)C(O)C1O (stereo not drawn)

Result:
1. 109 % of control
2. 104 % of control
3. 89 % of control
4. 112 % of control
5. 103 % of control
6. 98 % of control

Hey, quick one: what's T/C for each of these?
1. CCc1onc(-c2noc(CC)c2C)c1C
2. C=C=COC

Result:
107 % of control
95 % of control

* * *

Test system: P388 leukemia ip, CD2F1 mice, survival T/C
testMethodNotes: NCI In Vivo Anticancer Drug Screen. Data for tumor model P388 Leukemia (intraperitoneal) in CD2F1 (CDF1) mice
experimentalSetup: endpoint: median survival time; dose: 50.0 mg/kg/injection; schedule: Q01DX005 (ip); vehicle: Klucel (hydroxypropylcellulose) (HPC); higher = longer survival
Inconclusive results and toxic doses are left out.
quantity: T/C

>  <compound>
C=C1CC2(CCCC3(C2)OCCO3)OC1=O (stereo not drawn)

>  <T/C>
95 % of control

$$$$

Hey, quick one: what's T/C for each of these?
1. COC(=O)c1cc(=O)nc(NNC(C)=O)s1
2. C=CCN(CCNc1cccc2ccccc12)C1CCCCC1
3. Cc1cc(C(O)(C(F)(F)F)C(F)(F)F)c(N)c(C(O)(C(F)(F)F)C(F)(F)F)c1
4. Clc1ccc2c(c1)nc(-c1ccccn1)n2CCc1ccncc1
5. COc1cc(S(=O)(=O)O)ccc1N=N/C(=N\Nc1ccc(S(=O)(=O)O)cc1OC)C(N)=O
6. Oc1ccccc1-c1cc(-c2ccccc2)nc(NCCCNc2nc(-c3ccccc3)cc(-c3ccccc3O)n2)n1
7. CCCCCCCCCCN(CCCCCCCCCC)CC(=O)c1ccc2cc(Br)c3ccccc3c2c1
8. O=C(O)c1ccc2c3c(n[se]c13)-c1ccccc1C2=O

Result:
["103 % of control", "92 % of control", "104 % of control", "95 % of control", "100 % of control", "92 % of control", "89 % of control", "99 % of control"]

* * *

Tested on: P388 leukemia ip, CD2F1 mice, survival T/C
testMethodNotes: NCI In Vivo Anticancer Drug Screen. Data for tumor model P388 Leukemia (intraperitoneal) in CD2F1 (CDF1) mice
experimentalSetup: endpoint: median survival time; dose: 100.0 mg/kg/injection; schedule: Q01DX009 (ip); vehicle: Klucel (hydroxypropylcellulose) (HPC); higher = longer survival
Toxic doses and inconclusive results are not listed.
Record form. Attribute: T/C. Fill in for each entry.

Reference set (5 entries):
>  <compound>
c1ccc2c(c1)ccc1c(NCCCCCCNc3c4ccccc4nc4c3ccc3ccccc34)c3ccccc3nc12

>  <quantity>
T/C

>  <observedMeasurement>
96 % of control

$$$$
>  <compound>
COC1/C=C/OC2(C)Oc3c(C)c(O)c4c(c3C2=O)C(=O)C([N+](=O)[O-])=C(NC(=O)C(C)=C/C=C\C(C)C(O)C(C)C(O)C(C)C(OC(C)=O)C1C)C4=O (stereo unspecified)

>  <quantity>
T/C

>  <observedMeasurement>
90 % of control

$$$$
>  <compound>
O=C(/C=C/c1ccccc1)C1CCCCC1

>  <quantity>
T/C

>  <observedMeasurement>
107 % of control

$$$$
>  <compound>
COC(=O)CC1(C(=O)OC)C2=C(CCC2)N2CCCC21 (stereo unspecified)

>  <quantity>
T/C

>  <observedMeasurement>
93 % of control

$$$$
>  <compound>
BrC/C(=N\N=C(/CBr)c1ccccc1)c1ccccc1

>  <quantity>
T/C

>  <observedMeasurement>
112 % of control

$$$$

Memo: N#CC(Cc1ccccc1)c1ccc(Cl)cc1 (stereo unspecified) , reported T/C: 110 % of control

* * *

Test system: P388 leukemia ip, CD2F1 mice, survival T/C
testMethodNotes: NCI In Vivo Anticancer Drug Screen. Data for tumor model P388 Leukemia (intraperitoneal) in CD2F1 (CDF1) mice
experimentalSetup: endpoint: median survival time; dose: 200.0 mg/kg/injection; schedule: Q01DX009 (ip); vehicle: saline; higher = longer survival
Inconclusive results and toxic doses are left out.
quantity: T/C

>  <compound>
Clc1ccc(SCc2csc(-c3ccc(Cl)cc3)n2)cc1

>  <observedMeasurement>
104 % of control

$$$$
>  <compound>
Cc1nc2nc3n(c(=O)c2nc1C)CCCS3

>  <observedMeasurement>
113 % of control

$$$$

Hey, quick one: what's T/C for each of these?
1. O=CNC(NC=O)NC=O
2. NC(c1ccccc1)S(=O)(=O)O (centres undefined)
3. O=Nc1c[nH]c(=O)[nH]c1=O
4. CN(C)/C(N)=N\c1ncccn1
5. COC(=O)CC/C=N/NC(N)=O
6. COCCc1nn[nH]n1
7. COc1ccc(/C(C#N)=C\c2ccco2)cc1

Result:
1: 104 % of control; 2: 121 % of control; 3: 100 % of control; 4: 90 % of control; 5: 114 % of control; 6: 109 % of control; 7: 101 % of control

* * *

Record form. Attribute: T/C. Fill in for each entry.
Test system: P388 leukemia ip, CD2F1 mice, survival T/C
testMethodNotes: NCI In Vivo Anticancer Drug Screen. Data for tumor model P388 Leukemia (intraperitoneal) in CD2F1 (CDF1) mice
experimentalSetup: endpoint: median survival time; dose: 120.0 mg/kg/injection; schedule: Q01DX005 (ip); vehicle: Klucel (hydroxypropylcellulose) (HPC); higher = longer survival
Description: The antitumor activity of compounds was measured in mice bearing transplantable tumors. Survival or tumor size were measured and the results are expressed as the measurement made in the treated group (T) divided by the measurement made in the vehicle treated control group (C). The tumor model used in this assay is P388 Leukemia (intraperitoneal) in CD2F1 (CDF1) mice
Toxic doses and inconclusive results are not listed.

Reference set (4 entries):
>  <compound>
COC(=O)c1nc(N)nc(C(=O)OC)c1C(=O)c1ccccn1

>  <T/C>
99 % of control

$$$$
>  <compound>
O=C(CO)C1CC2CCC1C2 (stereo not drawn)

>  <T/C>
101 % of control

$$$$
>  <compound>
Cc1ccccc1-n1c(SCC(=O)NC(=O)Nc2cccc(Cl)c2)nc2c(Br)cc(Br)cc2c1=O

>  <T/C>
101 % of control

$$$$
>  <compound>
CCN(CC)Cc1c(C)[nH]c2ccc3c(c2c1=O)CCCC3

>  <T/C>
93 % of control

$$$$

Hey, quick one: what's T/C for each of these?
1. Cc1onc(-c2c(Cl)cccc2Cl)c1C(=O)Nc1ccc(Cl)c(Cl)c1Cl
2. O=C(NC1(OC(=O)c2ccc(Cl)cc2)CC1)c1ccc(Cl)cc1
3. c1ccc2c(c1)CCc1cc(CN3CCOCC3)ccc1N2
4. COC1C(=O)c2ccccc2N1C(C)=O (stereo not drawn)

Result:
["93 % of control", "104 % of control", "108 % of control", "101 % of control"]

* * *

System: P388 leukemia ip, CD2F1 mice, survival T/C
testMethodNotes: NCI In Vivo Anticancer Drug Screen. Data for tumor model P388 Leukemia (intraperitoneal) in CD2F1 (CDF1) mice
experimentalSetup: endpoint: median survival time; dose: 100.0 mg/kg/injection; schedule: Q01DX009 (ip); vehicle: other; higher = longer survival
Inconclusive results and toxic doses are left out.
quantity: T/C

Reference set (5 entries):
>  <molecule>
Cc1ccc(S(=O)(=O)NC(CNC(N)=O)C(=O)O)cc1 (stereo not given)

>  <T/C>
97 % of control

$$$$
>  <molecule>
CC(=O)Oc1ccc(N=Cc2cc3c(cc2[N+](=O)[O-])OCO3)cc1

>  <T/C>
93 % of control

$$$$
>  <molecule>
CCOC(=O)C(CC)(COCc1ccccc1)C(=O)OCC

>  <T/C>
100 % of control

$$$$
>  <molecule>
N#Cc1nccnc1Cl

>  <T/C>
100 % of control

$$$$
>  <molecule>
COc1ccc(C(O)c2ccc(OC)c(OC)c2)cc1OC

>  <T/C>
96 % of control

$$$$

Hey, quick one: what's T/C for each of these?
1. CC1=NC(c2ccccn2)=NNC(c2ccccn2)=C1c1ccccc1
2. CNC(=S)NNc1ccc(C)cc1
3. O=C(NC(Cc1cccs1)C(=O)O)c1ccccc1 (stereo not given)
4. CCOC(=O)N1CCc2cc(OC)c(OC)cc2/C1=C/c1cc(OC)c(OC)cc1Br
5. CCOC(=O)C1CC(=O)c2ccc(OC)c(OC)c2C1 (stereo not given)

Result:
1: 116 % of control; 2: 92 % of control; 3: 102 % of control; 4: 93 % of control; 5: 94 % of control

Reference for the values: PubChem BioAssay AID330
